- Tested on: spontaneously hypertensive rats
- Assay Remarks: Antihypertensive activity in spontaneously hypertensive rats (tail blood pressure)
- Assay type: in vivo, rat
- Condition Notes: 30 mg/kg, po; decrease of maximum blood pressure at 5 hours after treatment
Measurement Name: Decrease of tail blood pressure in SHR (mmHg)

| Compound | Tested On | Observed |
| --- | --- | --- |
| CC(=O)OCC1CC(=O)NN=C1c1ccc2c(c1)CCC(=O)N2C (stereo not shown) [Compound B] | spontaneously hypertensive rats | 62 |
| CCN1C(=O)CCc2cc(C3=NNC(=O)CC3COC(C)=O)ccc21 (stereo not shown) [Compound I] | spontaneously hypertensive rats | 47 |
| CN1C(=O)CCc2cc(C3=NNC(=O)CC3CO)ccc21 (stereo not shown) [Compound F] | spontaneously hypertensive rats | 92 |
| CC1CC(=O)NN=C1c1ccc2c(c1)C(C)(C)CC(=O)N2C (stereo not shown) [Compound C] | spontaneously hypertensive rats | 63 |

---

- Test system: platelet aggregation
- Assay Remarks: Inhibitory activity on platelet aggregation in rats (ADP-induced, after oral treatment)
- Type: in vivo
- Condition Notes: Rattus norvegicus, 3 mg/kg, 2 hours after oral treatment, 1.5×10^-5 M adenosine diphosphate, read-out: Percent inhibition of platelet aggregation, Rat
Where a name gives a salt, the structure may show the parent alone.
Measurement Name: inhibition at 3 mg/kg

| Molecule | Observed |
| --- | --- |
| CC1CC(=O)NN=C1c1ccc2c(c1)C(C)(C)CC(=O)N2C (stereo not drawn) [Compound C] | 59% |
| CN1C(=O)CCc2cc(C3=NNC(=O)CC3CO)ccc21 (stereo not drawn) [Compound F] | 62% |
| CC1CC(=O)N(CCN2CCOCC2)N=C1c1ccc2c(c1)CCC(=O)N2C (stereo not drawn) [Compound K, hydrochloride hemihydrate] | 51% |

---

- System: platelet aggregation
- Assay Remarks: Inhibitory activity on platelet aggregation in rats (ADP-induced, after oral treatment)
- Format: in vivo
- Condition Notes: Rattus norvegicus, 3 mg/kg, 2 hours after oral treatment, 1.5×10^-5 M adenosine diphosphate, read-out: Percent inhibition of platelet aggregation, Rat

| Compound | Tested On | Unit Abbrev | inhibition at 3 mg/kg |
| --- | --- | --- | --- |
| CCN1C(=O)CCc2cc(C3=NNC(=O)CC3COC(C)=O)ccc21 (centres unmarked) [Compound I] | platelet aggregation | % | 46 |
| CCC1CC(=O)NN=C1c1ccc2c(c1)CCC(=O)N2CC (centres unmarked) [Compound G] | platelet aggregation | % | 34 |
| CCN1C(=O)CCc2cc(C3=NNC(=O)CC3C)ccc21 (centres unmarked) [Compound J] | platelet aggregation | % | 35 |
| CC(=O)OCC1CC(=O)NN=C1c1ccc2c(c1)CCC(=O)N2C (centres unmarked) [Compound B] | platelet aggregation | % | 51 |
| CCN1C(=O)CCc2cc(C3=NNC(=O)CC3CO)ccc21 (centres unmarked) [Compound H] | platelet aggregation | % | 46 |

These entries and their values trace back to patent US4258185A.
